System: SW837
method-notes: Antiproliferative activity against human SW837 cells incubated for 6 days by CCK8 assay
Format: functional, cell-based
experimental-conditions: SW837, 144 h
pIC50: −log10 of the molar value.

# smiles-input, pIC50
measured = [
    ("C=CC(=O)N1CCN(c2nc(=O)n(-c3c(C)ccnc3C(C)C)c3nc(-c4c(O)cccc4F)c(F)cc23)[C@@H](C)C1", 8.05),
    ("COc1cc2nc(C)nc(N[C@H](C)c3cc(N)cc(C(F)(F)F)c3)c2cc1OCCCCC(=O)N[C@H](C(=O)N1C[C@H](O)C[C@H]1C(=O)NCc1ccc(-c2scnc2C)cc1)C(C)(C)C", 5.99),
]

* * *

test-target: von Hippel-Lindau disease tumor suppressor/Son of sevenless homolog 1 (Homo sapiens, UniProt Q07889+P40337)
Sequence (P40337 whole entry, looked up): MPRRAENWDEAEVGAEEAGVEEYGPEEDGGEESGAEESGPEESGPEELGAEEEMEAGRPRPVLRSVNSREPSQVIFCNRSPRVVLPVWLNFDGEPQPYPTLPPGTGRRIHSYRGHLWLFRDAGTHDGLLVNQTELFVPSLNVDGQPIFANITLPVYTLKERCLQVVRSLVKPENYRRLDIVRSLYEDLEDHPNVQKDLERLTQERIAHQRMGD
Sequence (Q07889 whole entry, looked up): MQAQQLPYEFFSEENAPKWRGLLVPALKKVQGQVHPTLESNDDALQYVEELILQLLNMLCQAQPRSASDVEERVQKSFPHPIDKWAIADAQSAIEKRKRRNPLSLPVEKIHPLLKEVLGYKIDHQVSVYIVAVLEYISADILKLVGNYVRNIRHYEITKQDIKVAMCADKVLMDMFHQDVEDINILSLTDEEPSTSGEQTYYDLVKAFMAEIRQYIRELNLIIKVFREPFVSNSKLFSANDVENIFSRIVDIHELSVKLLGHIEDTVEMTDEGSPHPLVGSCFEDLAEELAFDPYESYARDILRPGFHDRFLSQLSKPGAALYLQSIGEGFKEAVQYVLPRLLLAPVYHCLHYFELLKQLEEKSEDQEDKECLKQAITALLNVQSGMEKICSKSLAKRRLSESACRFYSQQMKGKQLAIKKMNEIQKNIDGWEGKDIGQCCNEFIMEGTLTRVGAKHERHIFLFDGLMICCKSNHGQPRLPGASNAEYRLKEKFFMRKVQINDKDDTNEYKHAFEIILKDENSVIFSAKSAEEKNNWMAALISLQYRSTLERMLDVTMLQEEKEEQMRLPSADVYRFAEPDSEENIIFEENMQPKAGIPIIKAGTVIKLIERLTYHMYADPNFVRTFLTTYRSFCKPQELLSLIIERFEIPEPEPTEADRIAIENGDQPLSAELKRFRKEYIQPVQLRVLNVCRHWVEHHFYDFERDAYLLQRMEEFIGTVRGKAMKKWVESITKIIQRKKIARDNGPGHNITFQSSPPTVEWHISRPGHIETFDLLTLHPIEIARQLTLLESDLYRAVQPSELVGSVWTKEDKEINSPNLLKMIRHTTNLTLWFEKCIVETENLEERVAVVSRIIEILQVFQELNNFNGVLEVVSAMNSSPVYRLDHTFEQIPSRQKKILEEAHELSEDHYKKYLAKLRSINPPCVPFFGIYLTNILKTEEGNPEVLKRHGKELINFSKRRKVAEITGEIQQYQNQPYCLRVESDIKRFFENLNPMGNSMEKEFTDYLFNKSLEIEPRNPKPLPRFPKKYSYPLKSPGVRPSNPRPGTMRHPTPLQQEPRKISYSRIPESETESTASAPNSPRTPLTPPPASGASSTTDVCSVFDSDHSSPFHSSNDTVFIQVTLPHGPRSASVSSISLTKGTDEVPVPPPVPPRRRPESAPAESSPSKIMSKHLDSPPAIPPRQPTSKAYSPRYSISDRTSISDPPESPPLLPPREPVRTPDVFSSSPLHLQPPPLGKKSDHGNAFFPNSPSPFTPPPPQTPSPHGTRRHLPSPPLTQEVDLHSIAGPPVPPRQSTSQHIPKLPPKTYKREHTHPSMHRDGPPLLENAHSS
method-notes: Protac activity at VHL/SOS1 in human K562 cells assessed as SOS1 degradation at 1 uM by Western blotting analysis relative to control
Assay type: cell-based
Please mark 1.0 if the recorded Activity is equal to or greater than 20%, and 0.0 if it falls below.

# smiles-input, class-assignment
data = [
    ("COc1cc2nc(C)nc(N[C@H](C)c3cc(-c4ccccc4CNCCCCCCCCCC(=O)N[C@H](C(=O)N4C[C@H](O)C[C@H]4C(=O)NCc4ccc(-c5scnc5C)cc4)C(C)(C)C)cs3)c2cc1OC", 0.0),
    ("COc1cc2nc(C)nc(N[C@H](C)c3cc(-c4ccccc4CNCCCN4CCC(C(=O)N[C@H](C(=O)N5C[C@H](O)C[C@H]5C(=O)NCc5ccc(-c6scnc6C)cc5)C(C)(C)C)CC4)cs3)c2cc1OC", 0.0),
    ("CNCc1ccccc1-c1csc([C@@H](C)Nc2nc(C)nc3cc(OC)c(OCCCCC(=O)N[C@H](C(=O)N4C[C@H](O)C[C@H]4C(=O)NCc4ccc(-c5scnc5C)cc4)C(C)(C)C)cc23)c1", 1.0),
    ("COc1cc2nc(C)nc(N[C@H](C)c3cc(-c4ccccc4CNCCCCCCC(=O)N[C@H](C(=O)N4C[C@H](O)C[C@H]4C(=O)NCc4ccc(-c5scnc5C)cc4)C(C)(C)C)cs3)c2cc1OC", 0.0),
    ("CNCc1ccccc1-c1csc([C@@H](C)Nc2nc(C)nc3cc(OC)c(OCCCCCCC(=O)N[C@H](C(=O)N4C[C@H](O)C[C@H]4C(=O)NCc4ccc(-c5scnc5C)cc4)C(C)(C)C)cc23)c1", 1.0),
    ("COc1cc2nc(C)nc(N[C@H](C)c3cc(-c4ccccc4CNCC4CCN(C(=O)CC(=O)N[C@H](C(=O)N5C[C@H](O)C[C@H]5C(=O)NCc5ccc(-c6scnc6C)cc5)C(C)(C)C)CC4)cs3)c2cc1OC", 0.0),
    ("COc1cc2nc(C)nc(N[C@H](C)c3cc(N)cc(C(F)(F)F)c3)c2cc1OCCCCCCC(=O)N[C@H](C(=O)N1C[C@H](O)C[C@H]1C(=O)NCc1ccc(-c2scnc2C)cc1)C(C)(C)C", 0.0),
    ("CNCc1ccccc1-c1csc([C@@H](C)Nc2nc(C)nc3cc(OC)c(OCCCCCCCCC(=O)N[C@H](C(=O)N4C[C@H](O)C[C@H]4C(=O)NCc4ccc(-c5scnc5C)cc4)C(C)(C)C)cc23)c1", 1.0),
    ("COc1cc2nc(C)nc(N[C@H](C)c3cc(-c4ccccc4CNCCCCCC(=O)N[C@H](C(=O)N4C[C@H](O)C[C@H]4C(=O)NCc4ccc(-c5scnc5C)cc4)C(C)(C)C)cs3)c2cc1OC", 0.0),
    ("CNCc1ccccc1-c1csc([C@@H](C)Nc2nc(C)nc3cc(OC)c(C4=CCN(C(=O)CCC(=O)N[C@H](C(=O)N5C[C@H](O)C[C@H]5C(=O)NCc5ccc(-c6scnc6C)cc5)C(C)(C)C)CC4)cc23)c1", 0.0),
    ("COc1cc2nc(C)nc(N[C@H](C)c3cc(-c4ccccc4CNCCC4CCN(C(=O)CC(=O)N[C@H](C(=O)N5C[C@H](O)C[C@H]5C(=O)NCc5ccc(-c6scnc6C)cc5)C(C)(C)C)CC4)cs3)c2cc1OC", 0.0),
    ("CNCc1ccccc1-c1csc([C@@H](C)Nc2nc(C)nc3cc(OC)c(OCCCCCC(=O)N[C@H](C(=O)N4C[C@H](O)C[C@H]4C(=O)NCc4ccc(-c5scnc5C)cc4)C(C)(C)C)cc23)c1", 1.0),
    ("COc1cc2nc(C)nc(N[C@H](C)c3cc(-c4ccccc4CNCC4CCN(CC5CCN(C(=O)CC(=O)N[C@H](C(=O)N6C[C@H](O)C[C@H]6C(=O)NCc6ccc(-c7scnc7C)cc6)C(C)(C)C)CC5)CC4)cs3)c2cc1OC", 0.0),
    ("COc1cc2nc(C)nc(N[C@H](C)c3cc(N)cc(C(F)(F)F)c3)c2cc1OCCCCCCCCCC(=O)N[C@H](C(=O)N1C[C@H](O)C[C@H]1C(=O)NCc1ccc(-c2scnc2C)cc1)C(C)(C)C", 0.0),
    ("COc1cc2nc(C)nc(N[C@H](C)c3cc(N)cc(C(F)(F)F)c3)c2cc1OCCCCC(=O)N[C@H](C(=O)N1C[C@H](O)C[C@H]1C(=O)NCc1ccc(-c2scnc2C)cc1)C(C)(C)C", 1.0),
    ("COc1cc2nc(C)nc(N[C@H](C)c3cc(N)cc(C(F)(F)F)c3)c2cc1OCCCCCCCC(=O)N[C@H](C(=O)N1C[C@H](O)C[C@H]1C(=O)NCc1ccc(-c2scnc2C)cc1)C(C)(C)C", 0.0),
    ("CNCc1ccccc1-c1csc([C@@H](C)Nc2nc(C)nc3cc(OC)c(OCCCCCCCC(=O)N[C@H](C(=O)N4C[C@H](O)C[C@H]4C(=O)NCc4ccc(-c5scnc5C)cc4)C(C)(C)C)cc23)c1", 1.0),
    ("COc1cc2nc(C)nc(N[C@H](C)c3cc(N)cc(C(F)(F)F)c3)c2cc1OCCCCCCCCC(=O)N[C@H](C(=O)N1C[C@H](O)C[C@H]1C(=O)NCc1ccc(-c2scnc2C)cc1)C(C)(C)C", 0.0),
    ("CNCc1ccccc1-c1csc([C@@H](C)Nc2nc(C)nc3cc(OC)c(C4=CCN(C(=O)CCCCC(=O)N[C@H](C(=O)N5C[C@H](O)C[C@H]5C(=O)NCc5ccc(-c6scnc6C)cc5)C(C)(C)C)CC4)cc23)c1", 0.0),
]

* * *

test-target: von Hippel-Lindau disease tumor suppressor/Son of sevenless homolog 1 (Homo sapiens, UniProt Q07889+P40337)
method-notes: Protac activity at VHL/SOS1 in human K562 cells assessed as SOS1 degradation at 10 uM by Western blotting analysis relative to control
Type: cell-based

# smiles-input, output-unit, Activity
data = [
    ("COc1cc2nc(C)nc(N[C@H](C)c3cc(-c4ccccc4CNCCC4CCN(C(=O)CC(=O)N[C@H](C(=O)N5C[C@H](O)C[C@H]5C(=O)NCc5ccc(-c6scnc6C)cc5)C(C)(C)C)CC4)cs3)c2cc1OC", "%", 0),
    ("COc1cc2nc(C)nc(N[C@H](C)c3cc(-c4ccccc4CNCCCCCCCCCC(=O)N[C@H](C(=O)N4C[C@H](O)C[C@H]4C(=O)NCc4ccc(-c5scnc5C)cc4)C(C)(C)C)cs3)c2cc1OC", "%", 25.3),
    ("COc1cc2nc(C)nc(N[C@H](C)c3cc(-c4ccccc4CNCC4CCN(CC5CCN(C(=O)CC(=O)N[C@H](C(=O)N6C[C@H](O)C[C@H]6C(=O)NCc6ccc(-c7scnc7C)cc6)C(C)(C)C)CC5)CC4)cs3)c2cc1OC", "%", 0),
    ("COc1cc2nc(C)nc(N[C@H](C)c3cc(N)cc(C(F)(F)F)c3)c2cc1OCCCC(=O)N[C@H](C(=O)N1C[C@H](O)C[C@H]1C(=O)NCc1ccc(-c2scnc2C)cc1)C(C)(C)C", "%", 0),
    ("COc1cc2nc(C)nc(N[C@H](C)c3cc(N)cc(C(F)(F)F)c3)c2cc1OCCCCCCCCCC(=O)N[C@H](C(=O)N1C[C@H](O)C[C@H]1C(=O)NCc1ccc(-c2scnc2C)cc1)C(C)(C)C", "%", 0),
    ("COc1cc2nc(C)nc(N[C@H](C)c3cc(N)cc(C(F)(F)F)c3)c2cc1OCCCCCC(=O)N[C@H](C(=O)N1C[C@H](O)C[C@H]1C(=O)NCc1ccc(-c2scnc2C)cc1)C(C)(C)C", "%", 0),
    ("CNCc1ccccc1-c1csc([C@@H](C)Nc2nc(C)nc3cc(OC)c(OCCCCC(=O)N[C@H](C(=O)N4C[C@H](O)C[C@H]4C(=O)NCc4ccc(-c5scnc5C)cc4)C(C)(C)C)cc23)c1", "%", 32.9),
    ("COc1cc2nc(C)nc(N[C@H](C)c3cc(-c4ccccc4CNCCCCCCC(=O)N[C@H](C(=O)N4C[C@H](O)C[C@H]4C(=O)NCc4ccc(-c5scnc5C)cc4)C(C)(C)C)cs3)c2cc1OC", "%", 80.1),
    ("COc1cc2nc(C)nc(N[C@H](C)c3cc(N)cc(C(F)(F)F)c3)c2cc1OCCCCCCCC(=O)N[C@H](C(=O)N1C[C@H](O)C[C@H]1C(=O)NCc1ccc(-c2scnc2C)cc1)C(C)(C)C", "%", 0),
    ("CNCc1ccccc1-c1csc([C@@H](C)Nc2nc(C)nc3cc(OC)c(C4=CCN(C(=O)CCCC(=O)N[C@H](C(=O)N5C[C@H](O)C[C@H]5C(=O)NCc5ccc(-c6scnc6C)cc5)C(C)(C)C)CC4)cc23)c1", "%", 18.7),
    ("COc1cc2nc(C)nc(N[C@H](C)c3cc(N)cc(C(F)(F)F)c3)c2cc1OCCCCCCCCC(=O)N[C@H](C(=O)N1C[C@H](O)C[C@H]1C(=O)NCc1ccc(-c2scnc2C)cc1)C(C)(C)C", "%", 0),
    ("CNCc1ccccc1-c1csc([C@@H](C)Nc2nc(C)nc3cc(OC)c(C4=CCN(C(=O)CCCCC(=O)N[C@H](C(=O)N5C[C@H](O)C[C@H]5C(=O)NCc5ccc(-c6scnc6C)cc5)C(C)(C)C)CC4)cc23)c1", "%", 28.3),
    ("COc1cc2nc(C)nc(N[C@H](C)c3cc(-c4ccccc4CNCCCN4CCC(C(=O)N[C@H](C(=O)N5C[C@H](O)C[C@H]5C(=O)NCc5ccc(-c6scnc6C)cc5)C(C)(C)C)CC4)cs3)c2cc1OC", "%", 0),
    ("COc1cc2nc(C)nc(N[C@H](C)c3cc(N)cc(C(F)(F)F)c3)c2cc1OCCCCCCC(=O)N[C@H](C(=O)N1C[C@H](O)C[C@H]1C(=O)NCc1ccc(-c2scnc2C)cc1)C(C)(C)C", "%", 0),
    ("COc1cc2nc(C)nc(N[C@H](C)c3cc(-c4ccccc4CNCCCCCCCC(=O)N[C@H](C(=O)N4C[C@H](O)C[C@H]4C(=O)NCc4ccc(-c5scnc5C)cc4)C(C)(C)C)cs3)c2cc1OC", "%", 58.9),
    ("COc1cc2nc(C)nc(N[C@H](C)c3cc(-c4ccccc4CNCC4CCN(C(=O)CC(=O)N[C@H](C(=O)N5C[C@H](O)C[C@H]5C(=O)NCc5ccc(-c6scnc6C)cc5)C(C)(C)C)CC4)cs3)c2cc1OC", "%", 0),
    ("CNCc1ccccc1-c1csc([C@@H](C)Nc2nc(C)nc3cc(OC)c(OCCCCCCC(=O)N[C@H](C(=O)N4C[C@H](O)C[C@H]4C(=O)NCc4ccc(-c5scnc5C)cc4)C(C)(C)C)cc23)c1", "%", 21.8),
]
